IC50 listing for selected molecules.
# TARGET OR SYSTEM: RARα (Homo sapiens, UniProt P10276)
# Sequence (P10276 1-462): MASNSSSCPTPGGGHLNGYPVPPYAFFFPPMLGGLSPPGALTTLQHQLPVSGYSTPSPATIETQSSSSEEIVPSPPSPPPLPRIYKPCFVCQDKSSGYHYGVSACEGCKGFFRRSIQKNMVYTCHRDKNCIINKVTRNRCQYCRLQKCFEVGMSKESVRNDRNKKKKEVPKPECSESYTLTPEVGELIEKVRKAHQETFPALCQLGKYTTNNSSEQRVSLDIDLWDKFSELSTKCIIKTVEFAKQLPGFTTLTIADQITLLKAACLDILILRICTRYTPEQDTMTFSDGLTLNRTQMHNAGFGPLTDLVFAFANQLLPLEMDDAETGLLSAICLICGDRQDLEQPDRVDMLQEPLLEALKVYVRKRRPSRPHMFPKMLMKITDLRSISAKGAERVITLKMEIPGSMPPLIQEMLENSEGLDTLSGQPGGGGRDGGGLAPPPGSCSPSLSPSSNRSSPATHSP
Hi! Could you send only the number? It should be in nM, unit omitted.

CCCCCCCOc1cc2c(cc1/C(C)=C/c1ccc(C(=O)O)cc1)C(C)(C)CS2(=O)=O    160
CCCCCCCCc1cc2c(cc1/C(C)=C/c1ccc(C(=O)O)cc1)C(C)(C)CCS2(=O)=O    70

Continue with the next molecule.
Test item CCCCCCCOc1cc2c(cc1/C(C)=C/c1ccc(C(=O)O)cc1)C(C)(C)CCS2(=O)=O [drawing 3] ; RARα (Homo sapiens, UniProt P10276); reported IC50 was 77

====

# TARGET OR SYSTEM: RARα (Homo sapiens)
# ASSAY METHOD TEXT: Transactivation of RARα relative to ATRA
# Type: biochemical
# STATED CONDITIONS: both compounds at 10000 nM, read-out: Transactivation EC50 % MAX, RARα
Emax at 10 µM listing for selected compounds.
Hi! Could you send only the number? It should be in %, unit omitted.

See these solved cases before continuing.
CCCCCCCCc1cc2c(cc1/C(C)=C/C=C/C(C)=C/C(=O)O)C(C)(C)CCCS2(=O)=O    11
CCCCCCOc1cc2c(cc1/C(C)=C/C=C/C(C)=C/C(=O)O)C(C)(C)CCCS2(=O)=O    20

Continue with the next compound.
// sample CCCCCCCOc1cc2c(cc1/C(C)=C/c1ccc(C(=O)O)cc1)C(C)(C)CCCS2(=O)=O , its Emax at 10 µM was 14

====

# TARGET OR SYSTEM: RARγ (Homo sapiens, UniProt P13631)
# Sequence (P13631 1-454): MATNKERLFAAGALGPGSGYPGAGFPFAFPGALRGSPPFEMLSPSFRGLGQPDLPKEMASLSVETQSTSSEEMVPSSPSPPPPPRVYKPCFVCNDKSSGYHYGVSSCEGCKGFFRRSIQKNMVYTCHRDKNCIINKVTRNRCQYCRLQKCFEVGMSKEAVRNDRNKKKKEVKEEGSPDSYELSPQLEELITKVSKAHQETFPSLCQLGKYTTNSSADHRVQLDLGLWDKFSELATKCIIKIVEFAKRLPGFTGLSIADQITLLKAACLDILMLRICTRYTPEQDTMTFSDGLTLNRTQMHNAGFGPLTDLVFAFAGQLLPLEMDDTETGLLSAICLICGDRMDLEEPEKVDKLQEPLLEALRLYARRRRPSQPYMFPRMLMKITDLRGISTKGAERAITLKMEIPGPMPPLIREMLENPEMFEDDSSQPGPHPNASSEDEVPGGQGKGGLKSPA
# ASSAY METHOD TEXT: Transactivation of RARγ relative to ATRA
# Type: biochemical
# STATED CONDITIONS: both compounds at 10000 nM, read-out: Transactivation EC50 % MAX, RARγ
Emax at 10 µM listing for selected compounds.
Hi! Could you send only the number? It should be in %, unit omitted.

CCCCCCCCc1cc2c(cc1/C(C)=C/c1ccc(C(=O)O)cc1)C(C)(C)CCS2(=O)=O    32
CCCCCCCOc1cc2c(cc1C#Cc1ccc(C(=O)O)cc1)C(C)(C)CCS2(=O)=O    20

Continue with the next compound.
// sample CCCCCCCCOc1cc2c(cc1/C(C)=C/c1ccc(C(=O)O)cc1)C(C)(C)CCCS2(=O)=O , its Emax at 10 µM was 25
